- System: Plasmodium falciparum
- TEST_DETAILS: In vitro antimalarial activity against Plasmodium falciparum
MEASURED_QUANTITY: IC50 (nM)
One number for each entry, in nM.

[Q] Given the compound C[C@@H](O)C1=C[C@@H](n2cnc3c(N)ncnc32)[C@H](O)[C@@H]1O , what is its reported IC50?
[A] 100

Then this compound:
[Q] Given the compound Nc1ncnc2c1ncn2[C@@H]1C=C(CO)[C@@H](O)[C@H]1O , what is its reported IC50?
[A] 200

Data origin: ChEMBL document CHEMBL1135714
